All values here come from ChEMBL document CHEMBL4834413.

# assay.summary: Renal clearance in rat at 1 mg/kg, iv
# Format: ADME, organism-based
# assay.conditions: in vivo
measured.attribute: CL renal (mL/min/kg)
Field format: number, assumed mL/min/kg, no unit text.

Problem: Which CL renal value belongs to Cn1cncc1-c1cc(F)ccc1CN1CCP(=O)(O)[C@](CCCCN)(C(=O)O)C1 ?
Result: 9.54

====

# assay.summary: Terminal half life in rat at 1 mg/kg, iv
# Assay type: ADME, organism-based
# assay.conditions: in vivo, read-out: beta t1/2 (converted)
measured.attribute: half-life (min)
Field format: number, assumed min, no unit text.

Problem: Which half-life value belongs to Cn1cncc1-c1cc(F)ccc1CN1CCP(=O)(O)[C@](CCCCN)(C(=O)O)C1 ?
Result: 28.2

====

# assay.summary: Fraction unbound in human plasma
# Type: ADME, cell-free
measured.attribute: fraction unbound
Just the number, please.

Problem: Which fraction unbound value belongs to Cn1cncc1-c1cc(F)ccc1CN1CCP(=O)(O)[C@](CCCCN)(C(=O)O)C1 ?
Result: 0.95

====

# experimental.target: Carboxypeptidase B2 (Rattus norvegicus) (UniProt Q9EQV9)
# Sequence (whole entry): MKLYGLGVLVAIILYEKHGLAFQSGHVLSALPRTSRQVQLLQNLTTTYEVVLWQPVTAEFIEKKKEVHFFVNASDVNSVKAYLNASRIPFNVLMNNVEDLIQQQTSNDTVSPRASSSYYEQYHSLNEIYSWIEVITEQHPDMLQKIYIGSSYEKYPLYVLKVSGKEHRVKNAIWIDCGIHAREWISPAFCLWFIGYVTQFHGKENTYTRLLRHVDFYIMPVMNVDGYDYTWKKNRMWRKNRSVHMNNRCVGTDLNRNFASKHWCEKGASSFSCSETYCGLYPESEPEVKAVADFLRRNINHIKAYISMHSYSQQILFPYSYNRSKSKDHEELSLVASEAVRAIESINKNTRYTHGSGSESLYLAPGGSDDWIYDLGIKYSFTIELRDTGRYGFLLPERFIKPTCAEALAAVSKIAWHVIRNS
# assay.summary: Ex vivo inhibition of TAFI in Sprague-Dawley rat blood TAFI at 0.6 mg/kg, iv measured after 60 mins by thromboelastometry analysis relative to control
# Assay type: functional, organism-based
inhibition values, listed per item
Field format: number, assumed %, no unit text.

Below: 2 molecules and their reported inhibition.
NCCCC[C@@]1(C(=O)O)CN(Cc2ccc(F)cc2-c2cncnc2)CCP1(=O)O = 21
Cc1ncc(-c2cc(F)ccc2CN2CCP(=O)(O)[C@](CCCCN)(C(=O)O)C2)n1C = 45

In the following, a different molecule is considered.
Problem: Any idea what inhibition came out for Cn1cncc1-c1cc(F)ccc1CN1CCP(=O)(O)[C@](CCCCN)(C(=O)O)C1 on Carboxypeptidase B2 (Rattus norvegicus) (UniProt Q9EQV9)?
Result: 61

====

# experimental.target: Carboxypeptidase B2 (Rattus norvegicus) (UniProt Q9EQV9)
# Sequence (whole entry): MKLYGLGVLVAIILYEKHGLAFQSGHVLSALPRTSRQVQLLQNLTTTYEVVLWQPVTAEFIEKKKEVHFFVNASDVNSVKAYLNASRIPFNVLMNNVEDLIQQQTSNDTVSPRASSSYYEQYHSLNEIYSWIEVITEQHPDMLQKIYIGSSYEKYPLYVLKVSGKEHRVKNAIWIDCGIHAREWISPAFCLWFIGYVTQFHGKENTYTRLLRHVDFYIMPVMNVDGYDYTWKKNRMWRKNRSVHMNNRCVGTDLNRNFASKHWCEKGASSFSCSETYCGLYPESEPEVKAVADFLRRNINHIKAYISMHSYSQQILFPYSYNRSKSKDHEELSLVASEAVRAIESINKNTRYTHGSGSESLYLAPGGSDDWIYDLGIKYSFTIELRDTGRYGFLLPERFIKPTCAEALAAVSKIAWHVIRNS
# assay.summary: Ex vivo inhibition of TAFI in Sprague-Dawley rat blood TAFI at 0.6 mg/kg, iv measured after 30 mins by thromboelastometry analysis relative to control
# Type: functional, organism-based
Rule: inhibition under 70% gives 0 (no), otherwise 1 (yes).

Solved entries (count: 5):
Cc1ccc(-c2ccccc2CN2CCP(=O)(O)[C@](CCCCN)(C(=O)O)C2)cc1 = 0 (no)
NCCCC[C@@]1(C(=O)O)CN(Cc2ccc(F)cc2-c2cncnc2)CCP1(=O)O = 0 (no)
COc1ccc(-c2cc(F)ccc2CN2CCP(=O)(O)[C@](CCCCN)(C(=O)O)C2)cc1 = 1 (yes)
Cc1ncc(-c2ccccc2CN2CCP(=O)(O)[C@](CCCCN)(C(=O)O)C2)n1C = 0 (no)
Cc1ccc(-c2cc(F)ccc2CN2CCP(=O)(O)[C@](CCCCN)(C(=O)O)C2)cc1 = 1 (yes)

Here is the next item to consider.
Problem: Is inhibition for NCCCC[C@@]1(C(=O)O)CN(Cc2ccc(F)cc2-c2cccnc2)CCP1(=O)O at or above 70%?
Result: 0 (no)
